System: K. pneumoniae NVT1001 strains with carbapenemase plasmids
Assay: Etest MIC of β-lactams, OmpK35/36 loss, ΔramR and/or carbapenemase (Table 9)
Assay type: cell-based, Klebsiella pneumoniae
Conditions: Klebsiella pneumoniae, KPC-2 on pACYC177; Δ36 (ΔompK36 mutant)
So I've got a bunch of compounds here, and I need their MIC values.
Give the value, in units of µg/mL, as a plain number.

stdin: What value of measured MIC is listed for CO/N=C(\C(=O)N[C@@H]1C(=O)N2C(C(=O)[O-])=C(C[N+]3(C)CCCC3)CS[C@H]12)c1csc(N)n1 [Cefepime] ?
stdout: 64

stdin: What value of measured MIC is listed for C[C@H]1[C@H](NC(=O)/C(=N\OC(C)(C)C(=O)O)c2csc(N)n2)C(=O)N1S(=O)(=O)O ?
stdout: 256

stdin: What value of measured MIC is listed for CO[C@@]1(NC(=O)Cc2cccs2)C(=O)N2C(C(=O)O)=C(COC(N)=O)CS[C@@H]21 ?
stdout: 64

stdin: What value of measured MIC is listed for C[C@@H](O)[C@H]1C(=O)N2C(C(=O)O)=C(S[C@@H]3CN[C@H](C(=O)Nc4cccc(C(=O)O)c4)C3)[C@H](C)[C@H]12 ?
stdout: 32

stdin: What value of measured MIC is listed for CO/N=C(\C(=O)N[C@@H]1C(=O)N2C(C(=O)O)=C(COC(C)=O)CS[C@H]12)c1csc(N)n1 ?
stdout: 256

stdin: What value of measured MIC is listed for CC(C)(O/N=C(\C(=O)N[C@@H]1C(=O)N2C(C(=O)[O-])=C(C[n+]3ccccc3)CS[C@H]12)c1csc(N)n1)C(=O)O ?
stdout: 32

* * *

So I've got a bunch of compounds here, and I need their MIC values.
Test system: A. baumannii KW1 strains with aminoglycoside resistance plasmids
Assay: Etest MIC of aminoglycosides, aminoglycoside-modifying enzyme or 16S rRNA methylase (Table 19)
Type: cell-based, Acinetobacter baumannii
Conditions: KW1 with APH(3')-Ia on pYMAb5Tc
Give the value, in units of mg/L, as a plain number.

stdin: What value of measured MIC is listed for NC[C@@H]1O[C@@H](O[C@H]2[C@H](O)[C@@H](O[C@H]3O[C@H](CO)[C@@H](O)[C@H](N)[C@H]3O)[C@H](N)C[C@@H]2N)[C@@H](O)[C@H](O)[C@H]1O ?
stdout: 16

stdin: What value of measured MIC is listed for NC[C@H]1O[C@H](O[C@H]2[C@H](O)[C@@H](O[C@H]3O[C@H](CO)[C@@H](O)[C@H](N)[C@H]3O)[C@H](N)C[C@@H]2N)[C@H](N)C[C@@H]1O ?
stdout: 0.5

stdin: What value of measured MIC is listed for CN[C@@H]1[C@H](O)[C@H](NC)[C@H]2O[C@@]3(O)C(=O)C[C@@H](C)O[C@H]3O[C@@H]2[C@H]1O ?
stdout: 24

stdin: What value of measured MIC is listed for NCC[C@H](O)C(=O)N[C@@H]1C[C@H](N)[C@@H](O[C@H]2O[C@H](CN)[C@@H](O)[C@H](O)[C@H]2O)[C@H](O)[C@H]1O[C@H]1O[C@H](CO)[C@@H](O)[C@H](N)[C@H]1O ?
stdout: 2

stdin: What value of measured MIC is listed for CN[C@@H]1[C@H](O[C@H]2[C@H](O[C@H]3[C@H](O)[C@@H](O)[C@H](N=C(N)N)[C@@H](O)[C@@H]3N=C(N)N)O[C@@H](C)[C@]2(O)C=O)O[C@@H](CO)[C@H](O)[C@H]1O ?
stdout: 12

stdin: What value of measured MIC is listed for CCN[C@@H]1C[C@H](N)[C@@H](O[C@H]2OC(CN)=CC[C@H]2N)[C@H](O)[C@H]1O[C@H]1OC[C@](C)(O)[C@H](NC)[C@H]1O ?
stdout: 1.5
